- Tested on: GBM#1 (Glioblastoma, PDC)
- assay_name: High-throughput screening, cell viability, GBM#1
- Format: cell-based
- protocol_conditions: seven days after drug treatment
pIC50: −log10 of the molar value. Non-standard residues stand in square brackets, D forms with d. Residues, ends and D or L forms follow the SMILES beside them. *: point of attachment. Dolaproine = CO[C@@H]([C@@H]1CCCN1)[C@@H](C)C(=O)O; Dil = CC[C@H](C)[C@H](NC)[C@@H](CC(=O)O)OC; X1 = C[C@@H](N*)[C@@H](O)c1ccccc1; NMeV = CN[C@H](C(=O)O)C(C)C
# label = Criterion met if pIC50 >= 7 else Criterion not met

Request: Decide: is the reported value of pIC50 for CC[C@H](C)[C@@H]([C@@H](CC(=O)N1CCC[C@H]1[C@H](OC)[C@@H](C)C(=O)N[C@@H](Cc1ccccc1)C(=O)O)OC)N(C)C(=O)[C@@H](NC(=O)[C@@H](NC)C(C)C)C(C)C [MMAF] (HELM PEPTIDE1{[meV].V.[CC[C@H](C)[C@@H]([C@@H](CC(=O)[*:2])OC)N(C)[*:1]].[CO[C@H]([C@@H](C)C(=O)[*:2])[C@@H]1CCCN1[*:1]].F}$$$$V2.0) equal to or greater than 7?
Response: Criterion not met

Request: Again, but for CC[C@H](C)[C@@H]([C@@H](CC(=O)N1CCC[C@H]1[C@H](OC)[C@@H](C)C(=O)N[C@H](C)[C@@H](O)c1ccccc1)OC)N(C)C(=O)[C@@H](NC(=O)[C@@H](NC)C(C)C)C(C)C [MMAE] (H-[NMeV]V[Dil][Dolaproine]-X1)
Response: Criterion met

Request: Another molecule to look at: COc1cc2cc(c1Cl)N(C)C(=O)C[C@H](OC(=O)[C@H](C)N(C)C(=O)CCC(C)(C)S)[C@]1(C)O[C@H]1[C@H](C)[C@@H]1C[C@@](O)(NC(=O)O1)[C@H](OC)/C=C/C=C(\C)C2 [DM4]
Response: Criterion met
